Data origin: patent US5332731A

# System: Staphylococcus epidermidis ATCC14990
# Assay Notes: antibacterial activity, MIC by standard serial dilution method
# Type: cell-based
# Text: Antibacterial activity of Compounds Nos. 1, 3, 5, 7, 9, 11, 13, 15, 17, 19, 21, 23, 25, 27, 29, 31, 33, 35 and 37 indentified hereinbefore which are the particular examples of the new cephalosporin derivative of general formula (I) according to this invention and which are in the form of the free carboxylic acid was estimated by determining the minimum inhibitory concentrations (MIC., μg/ml) of these compounds against a variety of bacteria according to a standard serial dilution method.
Property Name: MIC (µg/mL)
Answer in µg/mL, number only, no unit symbol.

// below: answered molecules
{"Molecule": "CO/N=C(\\C(=O)NC1C(=O)N2C(C(=O)O)=C(SCC3CCCO3)CS[C@H]12)c1csc(N)n1 (some centres unmarked) [Compound No. 1]", "Unit Tag": "µg/mL", "MIC": 0.78}
{"Molecule": "CO/N=C(\\C(=O)NC1C(=O)N2C(C(=O)O)=C(SCC3COC(C)(C)O3)CS[C@H]12)c1csc(N)n1 (some centres unmarked) [Compound No. 5]", "Unit Tag": "µg/mL", "MIC": 1.56}
{"Molecule": "Nc1nc(/C(=N/O)C(=O)NC2C(=O)N3C(C(=O)O)=C(SCC4CCCCO4)CS[C@H]23)cs1 (some centres unmarked) [Compound No. 25]", "Unit Tag": "µg/mL", "MIC": 1.56}

Look up MIC: CC1(C)OCCC(CSC2=C(C(=O)O)N3C(=O)C(NC(=O)/C(=N\O)c4csc(N)n4)[C@H]3SC2)O1 (some centres unmarked) [Compound No. 17]
0.39

Look up MIC: CO/N=C(\C(=O)NC1C(=O)N2C(C(=O)O)=C(SCC3CCOC3)CS[C@H]12)c1csc(N)n1 (some centres unmarked) [Compound No. 27]
0.78
